# ASSAY COMMENT: Cytotoxicity against rat L6 cells incubated for 72 hrs by Resazurin-dye based assay
# Type: toxicity, cell-based
EXPERIMENTAL READOUT: IC50 at 72 h (µg/mL)
Report only the number, with the unit µg/mL understood.

Fill in reported IC50 at 72 h for this entry: C=CC12OC[C@@]3(C(=O)OC)c4[nH]c5ccccc5c4C1NCCC23O
50

# credit: ChEMBL document CHEMBL5344423
